Overview of recorded Kd for various binders
Biological target: recombinant human CD3ε/δ heterodimer (human) (UniProt P07766)
Sequence (P07766 23-126, stated change not applied, chain 1 of 2): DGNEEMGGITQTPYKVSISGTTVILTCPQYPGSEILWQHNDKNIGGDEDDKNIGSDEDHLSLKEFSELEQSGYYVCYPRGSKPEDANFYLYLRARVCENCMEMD
Sequence (P04234 22-105, stated change not applied, chain 2 of 2, further chain): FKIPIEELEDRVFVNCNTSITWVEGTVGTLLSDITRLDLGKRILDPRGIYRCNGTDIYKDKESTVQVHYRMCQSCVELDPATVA
Experiment: BLI (Octet), antigen on anti-Penta His sensor, antibody 50 nM
# value in nM; strip the unit string

| Binder | Kd [nM] |
| --- | --- |
| Mouse human chimeric SP34 IgG1 antibody (antibody, V domains shown) VH: EVQLVESGGGLVQPKGSLKLSCAASGFTFNTYAMNWVRQAPGKGLEWVARIRSKYNNYATYYADSVKDRFTISRDDSQSILYLQMNNLKTEDTAMYYCVRHGNFGNSYVSWFAYWGQGTLVTVSS VL: QAVVTQESALTTSPGETVTLTCRSSTGAVTTSNYANWVQEKPDHLFTGLIGGTNKRAPGVPARFSGSLIGDKAALTITGAQTEDEAIYFCALWYSNLWVFGGGTKLTVLG | 0.229 |
| A07 (antibody, human IgG1, lambda, L234A L235A, V domains shown) VH: EVQLVESGGGLVQPGGSLKLSCAASGFTFNTYAMNWVRQASGKGLEWVGRIRSKYNNYATYYADSVKDRFTISRDDSKNTAYLQMNSLKTEDTAVYYCVRHGNFGNSYVSWFAYWGQGTLVTVSS VL: QAVVTQEPSLTVSPGGTVTLTCRSSTGAVTTSNYANWFQQKPGQAPRGLIGGTNKRAPWTPARFSGSLLGGKAALTLSGAQPEDEAEYYCALWYSNLWVFGGGTKLTVLG | 19.5 |
| A08 (antibody, human IgG1, lambda, L234A L235A, V domains shown) VH: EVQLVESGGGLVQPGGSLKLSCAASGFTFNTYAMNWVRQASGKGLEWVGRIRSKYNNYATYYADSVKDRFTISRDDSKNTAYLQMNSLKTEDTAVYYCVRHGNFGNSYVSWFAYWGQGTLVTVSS VL: QAVVTQEPSLTVSPGGTVTLTCRSSTGAVTTSNYANWFQQKPGQAPRGLIGGTNKRAPWTPARFSGSLLGDKAALTLSGAQPEDEAEYYCALWYSNLWVFGGGTKLTVLG | 22.2 |

input: Would you kindly share the measured Kd for H16 (antibody, human IgG1, lambda, L234A L235A, V domains shown) VH: EVQLVESGGGLVQPGGSLKLSCAASGFTFNTYAMNWVRQASGKGLEWVARIRSKYNNYATYYADSVKDRFTISRDDSQSTLYLQMNSLKTEDTAVYYCVRHGNFGNSYVSWFAYWGQGTLVTVSS VL: QAVVTQEPSLTVSPGGTVTLTCRSSTGAVTTSNYANWVQQKPGQAPRGLIGGTNKRAPWTPARFSGSLLGDKAALTLSGAQPEDEAEYYCALWYSNLWVFGGGTKLTVLG ?
output: 0.881

input: Which value of Kd has been reported for B07 (antibody, human IgG1, lambda, L234A L235A, V domains shown) VH: EVQLVESGGGLVQPGGSLKLSCAASGFTFNTYAMNWVRQASGKGLEWVGRIRSKYNNYATYYADSVKDRFTISRDDSKNTLYLQMNSLKTEDTAVYYCVRHGNFGNSYVSWFAYWGQGTLVTVSS VL: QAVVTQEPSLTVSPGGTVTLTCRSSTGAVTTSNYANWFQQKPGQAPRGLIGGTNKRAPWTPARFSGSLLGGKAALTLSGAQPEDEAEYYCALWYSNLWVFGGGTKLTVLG in the records?
output: 21.4
